Source: the supplement of paper PMC9170038

System: MS2 coat protein
Assay: apparent KD of MS2 coat protein; higher = weaker reporter binding
Details: Eterna round: R107; input ligand: theophylline 2 mM
# binning rule on apparent KD of MS2 coat protein: small value = under 30 nM, mid value = from 30 nM up to 50 nM, large value = 50 nM and over

Before answering, review these 4 worked examples.
UCACGACGCAACGUGAGAUAAUGAACAGAAGGAGCGAGGAGAGCCUCAGGUAGGUCGCUGACAUGAGGAUCACCCAUGUAUUACA [Same State Arginine A GF6] : large value
UGACAUUGCUCAGAUACCAGACGUGAGGAUCACCCACGUGCCAACAAGUACAAAAUAAAUGUCCCUUGGCAGCUGAGCAAUGUCU [TheoBX 26 #MS2Left #AlternativeMS2 #Theo22] : small value
UGUAUGUGAUCUGAUACCAGUCCAACUGGUAAAACCUGAGGAACACCCAGGUAAAAUUGGGACCCUUGGCAGCAGAUCGCAUACU : small value
CGCAACCCACAUGAGGAUCACCCAUGUGAAGGAGCGGCGAAUAAGCCAGGUAGGUCGCGCAUGAAUAAAUCAUGUAGGAAGCGAA [XArg-A 7 V1&2] : small value

Sort AAUACAUGAGGAUCACCCAUGUAAGCUGAAGGAGCGCUGGAAACAGCAGGUAGGUCGCAGCUGCGACCUUGGUGAUCUAGGUCGC [(M1)-(M2)-(Arg1)-(Arg2)-(A)'-(M)'-(A)''_Design7] into one of the categories.
mid value

Also, CCAUAAGUACCGGUCCUCAGAUCCUCAUGACGAGGACCGGUACGGCCGCCACUCGAAACAUGAGGAUCACCCAUGUAAUAAUACC [Brourdmod18] please.
large value

GGCCUAUGGCGCGAUACCAGCUUGAGUGUACUGGCCAGGUACAUGAGGAUCACCCAUGUAAGCCCUUGGCAGCGCGUCAUAGGCC [#1 Exclusion - Theophylline B Attempt #23 (HarryS)] , same question.
mid value

Param item: GGUUUAUAUAUAUAUAUAUAGAUUACUGAAGGAGCGGGAAAUAACCCAGGUAGGUCGCAGAGAUCCACAUGAGGAUCACCCAUGU [!0.E]
large value

Okay, and ACAUGAGGGCGAAGGAGCGCGAACAUGAGGAUCACCCAUGUCUAUAUCCGUCCGCAUGUAUCGCAGGUAGGUCGCGCUGUUACUU [#13 Exclusion - Arginine B] ?
small value

For GGCACAUGUGGAAGGAGCGUCGUACGAGCUACAUGAGGAUCACCCAUGUCGGUUAGUGUCCGACAGGUAGGUCGCCACAUUUAAC [Isiser] then?
large value
